B1: HDV Ribozyme (parent)
chain: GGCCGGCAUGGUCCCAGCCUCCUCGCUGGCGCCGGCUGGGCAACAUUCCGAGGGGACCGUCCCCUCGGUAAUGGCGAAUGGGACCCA

Variants of: B1
RUN DESCRIPTION: self-cleavage, relative activity (ratio to wild type); higher = more cleavage; co-transcriptional
Threshold rule: self-cleavage greater than or equal to 0.2 is y; below that, n.

- G59C U60C: y
- U46G G52A: y
- U46C U65A: y
- A56G C63U: y
- C32U C66U: y
- U20C C66A: n
- U37G G81U: n
- G2C G55C: n
- C26U U27G: y
- G31U A43G: n
- G25U G34A: n
- C64G U65A: y
- C41A G52U: y
- A51G C57A: y
- A56G G76C: y
- C21U C36G: n
- C13G U72G: n
- G5U U47A: y
- C19G G54C: n
- G54A A83C: y
- G28U C86A: n
- G54U A77U: y
- G11C G50A: y
- G82U C84G: y
- C57U U69A: y
- A45G U65C: y
- G53C C75G: n
- C44A G82C: n
- C7U U9A: y
- A16U C33U: y
- U37C G74U: y
- G38U C63U: y
- G39C G81A: n
- C62G C86G: y
- A70G C84U: y
